Below: a set of entries, each annotated with reported collision cross section in nitrogen.
- ASSAY_EXPLANATION: collision cross section in nitrogen (drift tube, single-field); higher = larger gas-phase ion size;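 also: chemical standards at 10 µM analysed by drift tube IMS-QTOF MS in about 3.95 torr nitrogen, mean of duplicate injections differing ≤1%, mass error below 10 ppm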
- CONDITION_INFO: ion type: [M+H]; ion source: APCI; ion mode: Positive
Please respond with the number in Å² and leave the unit unwritten.

Please review the entries below; each comes with its answer.
{"columns": ["COMPOUND", "MEASURED_PARAMETER", "UNIT_OF_MEASUREMENT", "NUMERIC_RESULT"],
 "data": [
  ["O=C1OC2(c3ccccc31)c1ccc(O)c(Br)c1Oc1c2ccc(O)c1Br", "collision cross section in nitrogen", "Å²", 186.2],
  ["Nc1ccc(Cc2ccc(N)cc2)cc1", "collision cross section in nitrogen", "Å²", 163.3],
  ["NC(=O)N1c2ccccc2CC(=O)c2ccccc21 [Oxcarbazepine]", "collision cross section in nitrogen", "Å²", 153.9]
]}

Req: Return the recorded collision cross section in nitrogen value; entry: CCOP(=O)(CN(CCO)CCO)OCC [Diethyl (N,N-bis(2-hydroxyethyl)amino)methanephosphonate]
Resp: 153.5

Req: Return the recorded collision cross section in nitrogen value; entry: C#C[C@]1(O)CC[C@H]2[C@@H]3CCC4=CC(=O)CC[C@]4(C)[C@H]3CC[C@@]21C
Resp: 180.2
